From: paper PMC4389443

target: VAP-1/SSAO in gonadal fat tissue homogenate (Canis lupus familiaris, UniProt A0A8I3MYY3); experiment: SSAO activity, gonadal fat tissue homogenate; conditions: dog
Sequence (A0A8I3MYY3 1-763): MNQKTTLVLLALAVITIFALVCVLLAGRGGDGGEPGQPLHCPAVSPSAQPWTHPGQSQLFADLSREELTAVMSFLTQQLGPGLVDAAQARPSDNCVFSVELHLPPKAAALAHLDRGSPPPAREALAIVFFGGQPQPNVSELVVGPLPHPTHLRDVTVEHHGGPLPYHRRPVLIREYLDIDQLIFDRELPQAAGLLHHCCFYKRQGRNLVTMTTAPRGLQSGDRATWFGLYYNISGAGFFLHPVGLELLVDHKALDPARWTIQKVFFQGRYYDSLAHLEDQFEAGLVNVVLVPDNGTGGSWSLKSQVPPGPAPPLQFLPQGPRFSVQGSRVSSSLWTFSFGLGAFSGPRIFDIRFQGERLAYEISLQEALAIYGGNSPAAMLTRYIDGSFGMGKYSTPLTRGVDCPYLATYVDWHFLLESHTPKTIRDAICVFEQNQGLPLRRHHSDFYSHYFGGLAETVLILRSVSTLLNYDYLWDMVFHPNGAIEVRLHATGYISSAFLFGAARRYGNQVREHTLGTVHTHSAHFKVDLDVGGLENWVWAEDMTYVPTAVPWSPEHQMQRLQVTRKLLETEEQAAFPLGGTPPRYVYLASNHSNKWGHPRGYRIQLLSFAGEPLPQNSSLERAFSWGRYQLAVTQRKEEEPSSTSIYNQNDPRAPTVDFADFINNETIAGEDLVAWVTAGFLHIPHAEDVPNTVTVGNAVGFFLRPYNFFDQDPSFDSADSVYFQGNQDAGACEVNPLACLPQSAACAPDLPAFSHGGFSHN
pIC50: −log10 of the molar value.

COMPOUND	pIC50
CC(C)(C)NC(=O)c1ccc(OC/C(=C/F)CN)cc1 [PXS-4728A]	> 8.00

###

assay: Pharmacokinetics in Wistar rats; format: in vivo; conditions: Wistar, plasma; rat, oral 6 mg.kg^−1; read-out: Apparent concentration at curve maximum Cmax
ENDPOINT: Cmax (ng/mL)

COMPOUND	EXPERIMENTAL_RESULT
CC(C)(C)NC(=O)c1ccc(OC/C(=C/F)CN)cc1 [PXS-4728A]	720

###

assay: Pharmacokinetics in BALB/c mice; assay type: in vivo; settings: BALB/c, plasma; mouse, intravenous 5 mg.kg^−1; read-out: Clearance CL
ENDPOINT: clearance (mL/min/kg)

COMPOUND	EXPERIMENTAL_RESULT
CC(C)(C)NC(=O)c1ccc(OC/C(=C/F)CN)cc1 [PXS-4728A]	80

###

assay: Pharmacokinetics in BALB/c mice; format: in vivo; conditions: BALB/c, plasma; mouse, oral 10 mg.kg^−1; read-out: Apparent concentration at curve maximum Cmax
ENDPOINT: Cmax

COMPOUND	EXPERIMENTAL_RESULT
CC(C)(C)NC(=O)c1ccc(OC/C(=C/F)CN)cc1 [PXS-4728A]	1380 ng/mL

###

biological target: Recombinant lysyl oxidase like 2 (Homo sapiens); assay: LOXL2 fluorometric enzyme activity assay
Sequence (Q9Y4K0 26-774): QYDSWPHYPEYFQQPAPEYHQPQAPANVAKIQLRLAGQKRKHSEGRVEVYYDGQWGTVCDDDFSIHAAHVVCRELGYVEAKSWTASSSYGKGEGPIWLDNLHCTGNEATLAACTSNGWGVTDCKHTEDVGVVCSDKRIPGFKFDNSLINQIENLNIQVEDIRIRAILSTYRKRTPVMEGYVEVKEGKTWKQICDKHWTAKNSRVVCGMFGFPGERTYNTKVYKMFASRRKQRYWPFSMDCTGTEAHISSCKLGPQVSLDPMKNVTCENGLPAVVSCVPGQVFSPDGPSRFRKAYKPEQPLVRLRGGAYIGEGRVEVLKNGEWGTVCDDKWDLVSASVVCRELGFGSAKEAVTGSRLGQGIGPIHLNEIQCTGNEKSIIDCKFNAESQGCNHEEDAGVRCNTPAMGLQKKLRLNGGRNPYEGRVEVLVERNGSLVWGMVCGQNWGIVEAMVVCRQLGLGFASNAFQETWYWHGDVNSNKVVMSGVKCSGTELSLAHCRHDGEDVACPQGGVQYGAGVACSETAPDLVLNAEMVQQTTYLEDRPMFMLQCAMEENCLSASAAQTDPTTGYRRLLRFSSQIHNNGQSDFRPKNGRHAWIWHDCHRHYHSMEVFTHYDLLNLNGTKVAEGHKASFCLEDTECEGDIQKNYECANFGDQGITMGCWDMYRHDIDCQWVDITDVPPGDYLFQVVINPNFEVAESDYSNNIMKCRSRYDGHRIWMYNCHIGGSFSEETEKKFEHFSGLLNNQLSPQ
pIC50: −log10 of the molar value.
ENDPOINT: pIC50

COMPOUND	EXPERIMENTAL_RESULT
CC(C)(C)NC(=O)c1ccc(OC/C(=C/F)CN)cc1 [PXS-4728A]	4.98

###

Target: VAP-1/SSAO in gonadal fat tissue homogenate (Oryctolagus cuniculus, UniProt A0A5F9CS97)
Sequence (A0A5F9CS97 1-763): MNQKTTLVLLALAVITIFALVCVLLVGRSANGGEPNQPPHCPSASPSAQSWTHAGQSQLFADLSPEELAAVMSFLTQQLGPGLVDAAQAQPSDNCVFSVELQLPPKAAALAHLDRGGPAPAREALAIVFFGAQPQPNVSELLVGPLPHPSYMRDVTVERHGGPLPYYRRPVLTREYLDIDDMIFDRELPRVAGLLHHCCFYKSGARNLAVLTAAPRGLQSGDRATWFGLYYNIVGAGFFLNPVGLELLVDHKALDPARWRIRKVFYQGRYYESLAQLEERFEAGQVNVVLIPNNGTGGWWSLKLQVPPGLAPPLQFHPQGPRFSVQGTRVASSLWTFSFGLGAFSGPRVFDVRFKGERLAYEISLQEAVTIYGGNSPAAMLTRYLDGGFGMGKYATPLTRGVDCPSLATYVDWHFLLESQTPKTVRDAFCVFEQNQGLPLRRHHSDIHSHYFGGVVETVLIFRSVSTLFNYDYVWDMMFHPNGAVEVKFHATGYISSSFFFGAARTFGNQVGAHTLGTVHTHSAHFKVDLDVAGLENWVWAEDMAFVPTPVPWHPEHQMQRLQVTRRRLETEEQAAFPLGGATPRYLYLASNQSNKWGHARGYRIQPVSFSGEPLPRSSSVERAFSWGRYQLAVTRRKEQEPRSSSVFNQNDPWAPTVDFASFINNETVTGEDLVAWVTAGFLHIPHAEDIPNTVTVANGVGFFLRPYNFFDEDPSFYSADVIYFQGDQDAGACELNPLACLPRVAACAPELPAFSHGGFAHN
Assay: SSAO activity, gonadal fat tissue homogenate
Conditions: rabbit
ENDPOINT: IC50

COMPOUND	EXPERIMENTAL_RESULT
CC(C)(C)NC(=O)c1ccc(OC/C(=C/F)CN)cc1 [PXS-4728A]	< 10 nM
